Tested on: CEM cells HIV-1 protection, formazan growth assay
experimental protocol: NCI AIDS Antiviral Assay;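 active = compounds giving half or more protection of infected cells from virus-caused growth loss, again on retest; inactive = the rest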
Labels: yes = active, no = inactive

molecule | class
CN1C(=O)N(C)C(O)C(Cl)(Cl)C1=O (stereo unspecified) | no
Nc1cc(S(N)(=O)=O)ccc1SSc1ccc(S(N)(=O)=O)cc1N | yes
COc1ccc(-c2csc3c2[N+]2(C)C=CC=C2C3N2CCCC2)cc1 (stereo unspecified) | no
O=S(=O)(N=S(c1ccc(Cl)cc1)c1ccc(Cl)cc1)c1ccccc1 | no
Cc1ccc(C=C2C(=O)NC(=O)NC2=O)cc1 | no
O=c1[nH]c(=O)n(C2CC(O)C(CO)O2)cc1C#Cc1cc(F)cc(F)c1 (stereo unspecified) | no

====

Test system: CEM cells HIV-1 protection, formazan growth assay
experimental protocol: NCI AIDS Antiviral Assay
applied conditions: measured here: growth of uninfected CEM cells
pIC50: −log10 of the molar value. *1 amine or outer side, *2 acyl side, *3 side chain or, on linkers, in order; H or OH if unused. Where a SMILES comes first, the peptide text is derived from it. [ ]: non-standard residue; d: D form. ξ: configuration not given here. X15 = O=C([C@H]1CCC[C@H]1N[*:1])[*:2]; ξW = NC(Cc1c[nH]c2ccccc12)C(=O)O; ξF = NC(Cc1ccccc1)C(=O)O; ξK = NCCCCC(N)C(=O)O; ξT = CC(O)C(N)C(=O)O
attribute measured: pIC50

molecule | result value
O=C1C(Cl)C(c2ccccc2Cl)N1n1cnc2ccccc2c1=O (stereo unspecified) | < 4.84
O=c1c2c([nH]c3nccn13)CCCC2 | < 3.70
O=C1CSC(c2ccccc2O)N1c1ccc(-c2ccc(-n3c(-c4ccccc4)nc4ccccc4c3=O)cc2)cc1 (stereo unspecified) | 4.92
CC1(C)Oc2ccccc2[N+]([O-])=C1c1ccccc1 | < 3.85
COc1ccc(-n2c(N)c(C#N)c(C#N)c2-c2ccco2)cc1 | < 3.70
CC(O)C1NC(=O)C(CCCCN)NC(=O)C(Cc2c[nH]c3ccccc23)NC(=O)C(Cc2ccccc2)NC(=O)[C@H]2CCC[C@H]2NC(=O)C(Cc2ccccc2)NC1=O (stereo partly specified) (cyclo([X15][ξF][ξW][ξK][ξT][ξF])) | < 3.70
CCN(CC)CCSc1c2ccccc2nc2cc(NCC(=O)Nc3ccccc3-c3ccccc3NC(=O)CNc3ccc4c(SCCN(CC)CC)c5ccccc5nc4c3)ccc12 | < 4.48
CNC(=S)N1CCN(C(C)=O)C1=S | < 3.70
CCN(CC)CCOc1cccc(/C=C(\C#N)c2ccccc2)c1 | 5.11
N#C/C=C(/NC(=O)Nc1ccccc1)N1CCCC1 | < 3.70
SCCN1CCCN(CCS)CCC1 | 3.87

====

Tested on: CEM cells HIV-1 protection, formazan growth assay
experimental protocol: NCI AIDS Antiviral Assay
applied conditions: measured here: growth of uninfected CEM cells
attribute measured: IC50

compound | result value
CC(C)(C)[Si](C)(C)OC1C(/C=N\O)OC(n2ccc(=O)[nH]c2=O)C1O[Si](C)(C)C(C)(C)C (stereo not given) | 3.55 µM
CSc1sc(C)cc1-c1nsc(=O)o1 | > 200 µM
CCOC(OCC)[C@@H]1C[C@@H]2N(O[C@H](OC3CCCC3(c3ccccc3)c3ccccc3)[C@H](OC(C)=O)[C@@]2(CC)Cc2ccc(OC)c(OC)c2)O1 (stereo not given in full) | > 200 µM
N#Cc1c(-c2ccc([N+](=O)[O-])cc2)c(=O)oc2cc(O)ccc12 | 74.1 µM
O=C(O)c1ccc(NNc2cc(=O)[nH]c(=O)[nH]2)cc1 | 107 µM

====

Tested on: CEM cells HIV-1 protection, formazan growth assay
experimental protocol: NCI AIDS Antiviral Assay
pEC50: −log10 of the molar value.
attribute measured: pEC50

molecule | result value
CC(=O)OC1CC2(C)OC(Cc3ccccc32)O1 (stereo unspecified) | < 3.70
CCCCC1=C(C(=O)N2CCOCC2)C2(OCCO2)C1=O | < 3.70
O=C1c2ccccc2CCCC12OC2c1cccnc1 (stereo unspecified) | < 3.59
COC(CC[P+](c1ccccc1)(c1ccccc1)c1ccccc1)(C(=O)c1ccccc1)c1ccccc1 (stereo unspecified) | < 4.70
N#C/C(C(=O)Nc1ccc(Cl)cc1)=C(/N)N1CCCCC1 | < 3.70
Nn1c(-c2ccccc2)nn(C(=O)c2ccccc2)c1=O | < 3.70
CN1CCN(C)C(=O)CSSCC1=O | < 3.82
CN=S(=O)(C[C@]1(O)CC2OC1C1OC(C)(C)OC21)c1ccccc1 (stereo partly specified) | < 3.15
COc1cc(COC(=O)N2CC=CC2C(=O)O)c([N+](=O)[O-])cc1OC (stereo unspecified) | < 3.15
O=C(CC1C(=O)Nc2ccccc2S1=O)Nc1cccc(Cl)c1 (stereo unspecified) | < 4.68
Cc1ccc(S(=O)(=O)/N=S(\C)c2cccc(Cl)c2)cc1 (stereo unspecified) | < 3.70

====

Tested on: CEM cells HIV-1 protection, formazan growth assay
experimental protocol: NCI AIDS Antiviral Assay
Where a SMILES comes first, the peptide text is derived from it. [ ]: non-standard residue; d: D form. The star is where a group is joined. Ac5c = NC1(C(=O)O)CCCC1; Boc = CC(C)(C)OC(=O)*; tBu = CC(C)(C)*

compound | EC50
NC(=S)N/N=C/C(O[C@@H](/C=N/NC(N)=S)CO)n1cnc2c(N)ncnc21 (stereo not given in full) | > 437 µM
N#CCCC1C(=O)CCCC1=O | > 200 µM
N#CC(/C=C/c1ccccc1)NCCc1ccccc1 (stereo not given) | > 10.5 µM
CCOC(=O)C(=CNc1ccc(NC2=NCC(C)S2)cc1)C(=O)OCC (stereo not given) | > 200 µM
Cn1c(=N)n(CC(=O)NC23CC4CC(CC(C4)C2)C3)c2ccccc21 | > 347 µM
CC(CC(=O)O)CC(=O)OC[C@]12CC[C@@H](C(C)C)[C@@H]1[C@H]1CC[C@@H]3[C@@]4(C)CC[C@H](OC(=O)CC(C)CC(=O)O)C(C)(C)[C@@H]4CC[C@@]3(C)[C@]1(C)CC2 (stereo not given in full) | > 200 µM
Cc1ncc2c[n+]([O-])ccn12 | > 1660 µM
COc1ccc2c(c1)OCC1(O)Cc3ccccc3OC21 (stereo not given) | > 200 µM
O=C(Nc1cccc(C(F)(F)F)c1)C(=O)C(C(=O)c1ccc(Cl)c(Cl)c1)C1OC(=O)c2ccccc21 (stereo not given) | > 158 µM
O=Nc1ccc(C=C2C(=O)C=CC2=O)cc1 | > 200 µM
CC1(C)CCNc2ccccc2S1 | > 229 µM
N#Cc1c(N)c(-c2ccc(Cl)cc2)c(F)c2ccccc12 | 178 µM
CC(OC(C)(C)C)C(NC(=O)C(CCCCNC(=O)OC(C)(C)C)NC(=O)C(Cc1c[nH]c2ccccc12)NC(=O)C(N)Cc1ccccc1)C(=O)NC(Cc1ccccc1)C(=O)NC1(C(=O)O)CCCC1 (stereo not given) (H-FWK(Boc)T(tBu)F[Ac5c]-OH; configuration not given here) | 97.7 µM
O=C(O)c1c(O)ccc(N=Nc2ccc(N=Nc3ccc4c(S(=O)(=O)O)cccc4c3O)c3ccccc23)c1O | > 100 µM
CN(C)CCn1c(=O)c2ccc(NCCNCCO)c3c(=O)c4cc(O)ccc4n(c1=O)c23 | > 2 µM
C=C1CN(S(=O)(=O)c2ccc(C)cc2)CCCN(CC2CC2)CCCN(S(=O)(=O)c2ccc(C)cc2)C1 | > 200 µM
COc1ccc(NS(=O)c2c(C)cc(C)cc2C)cc1 (stereo not given) | > 200 µM
CCC1C(C#N)=C(O)NC(O)=C1C#N | > 1290 µM
CCCC(=O)OCc1cc(=O)n(C)c2c3c4c(cc12)c(C)cc(=O)n4CO3 | > 174 µM
COc1ccc(NC(=O)C2=C(SC)C(C#N)C(=O)N=C2N)cc1 (stereo not given) | > 200 µM
O=C1c2c(O)cc(O)cc2OC(c2ccc(O)cc2)C1C1C(=O)c2c(O)cc(O)cc2OC1c1ccc(O)cc1 (stereo not given) | > 200 µM
COc1cc(C(=O)NC(CCN)(c2ccccc2)c2ccccc2)cc(OC)c1OC | > 200 µM
CC(=Nc1ccccc1C(=O)[O-])c1c([O-])ccc2c(C)cc(=O)oc12.[Cu+2].[OH3+] | > 1.32 µM
CC(C)N=C(NC#N)NS(=O)(=O)c1cnccc1Nc1ccc(Cl)cc1 | > 200 µM
O=C1C2=Cc3ccccc3OC2(O)Oc2cc3ccccc3cc21 (stereo not given) | > 200 µM
Clc1cc2nnn(C3CCCCO3)c2cc1Cl (stereo not given) | > 200 µM
CC(=O)/C(=C/N1CCNC1=S)C(=O)Nc1ccc([N+](=O)[O-])cc1 | > 200 µM
O=C1C=CC(=O)C2C1C1CC3C=CC312 (stereo not given) | > 1350 µM
CC(C)O[C@H]1N(C2CC(N=[N+]=[N-])C(CO)O2)C(=O)NC(=O)[C@]1(C)Cl (stereo not given in full) | > 200 µM
O=c1c(C2=NCCC2)c(-c2ccc[nH]2)[nH]n1-c1ccccc1 | > 200 µM
Cc1nc(-c2nc(C)c(C(=O)/C=C/c3ccc(N(C)C)cc3)s2)sc1C(=O)/C=C/c1ccc(N(C)C)cc1 | > 34.7 µM
Cc1ccc(S(=O)(=O)N/N=C(/CC(=O)c2c(C)n([O-])c3ccccc3[n+]2=O)C(=O)Nc2ccccc2C)cc1 | > 33.1 µM
CC(=O)NC(ON1C(=O)COc2ccccc21)C(Cl)(Cl)Cl (stereo not given) | > 100 µM
COC(O)C(=O)c1ccc2c(c1)CC1(C2)Cc2cc3c(cc2C1=O)CCC3 (stereo not given) | > 200 µM
C#CC(O)/C=C/C(O)CCCC(O)CC#CC(O)C#CC(O)CCCC(O)/C=C/CCCCCC(=O)CCCCCCCCCCCCCC(O)C(O)C#CC(=O)O (stereo not given) | > 100 µM
Oc1ccccc1C1SC(c2ccccc2O)SC(c2ccccc2O)S1 (stereo not given) | > 200 µM
CCNC(=O)CCN(C(=O)O)S(=O)(=O)c1ccc(NC(=O)c2ccccc2)cc1 | > 603 µM
O=C(/C=C/c1ccc(O)cc1)CC(=O)/C=C/c1ccc(O)cc1 | > 200 µM
CC1=CC(C)(C)N=C2SC(c3ccc(N)cc3)=NN12 | > 251 µM
Cc1c2ccccc2nc(CS(C)(=O)=O)[n+]1[O-] | > 200 µM
